Tested on: P94_40
Assay: qHTS profiling for inhibitors of Plasmodium falciparum proliferation (AID 504749); note: nearly all actives have a fitted effect of over 60% in size; note: potency is the fitted concentration of half-maximal effect
Details: P. falciparum in erythrocytes, SYBR Green DNA, 72 h; series mostly up to 28.7 µM
Results filed as inconclusive are left out. Activity calls are given as the source filed them. Calls come from the whole dose curve; as a rule, active = well fitted inhibition curve with a large enough effect; inconclusive = small, poorly fitted or top-dose-only effect; inactive = flat fitted curve, though single readings scatter.
property.name: Potency

| compound | target.desc | property.name | reported.measurement |
| --- | --- | --- | --- |
| COc1ccc2c(c1OC)C(=O)OC2[C@H]1c2c(cc3c(c2OC)OCO3)CCN1C (some centres undefined) | P94_40 | Potency | inactive |
| CCC(C(=O)O)C1CCC(C)C(C(C)C(O)C(C)C(=O)C(CC)C2OC3(C=CC(O)[C@@]4(CC[C@](C)(C5CC[C@@](O)(CC)C(C)O5)O4)O3)C(C)CC2C)O1 (some centres undefined) | P94_40 | Potency | 501 nM (active) |
| OCC(O)C(O)C(O)CO (centres undefined) | P94_40 | Potency | inactive |
| COc1ccc([C@@H]2CNC(=O)C2)cc1OC1CCCC1 | P94_40 | Potency | inactive |
